test.target: monoclonal antibody 26-10 (Mus musculus)
Sequence (P01631 whole entry): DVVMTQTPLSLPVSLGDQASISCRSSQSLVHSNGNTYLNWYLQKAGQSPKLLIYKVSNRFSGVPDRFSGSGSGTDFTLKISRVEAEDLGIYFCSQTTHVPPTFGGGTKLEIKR
measurement.kind: pIC50
The read-out pIC50 is expressed as -log10 of concentration in moles per litre.

## Task For monoclonal antibody 26-10 (Mus musculus), give pIC50 of the listed compound: `C[C@@H]1O[C@@H](O[C@H]2C[C@@H](O)[C@]3(CO)[C@H]4[C@H](O)C[C@]5(C)[C@@H](C6=CC(=O)OC6)CC[C@]5(O)[C@@H]4CC[C@]3(O)C2)[C@H](O)[C@H](O)[C@H]1O`
## Result 6.52

Values were extracted from patent US6998470B1.
